Settings: Subject S-012; Mean ± SD of 3 independent measurements
endpoint name: Amount in urine collected for 10 h after consumption of cooked beef (ng)
Unit ng implied. Number only.

Ask: // query Amount in urine collected for 10 h after consumption of cooked beef value for entry Cn1c(N)nc2ncc(-c3ccccc3)cc21
Reply: 17.0

Ask: // query Amount in urine collected for 10 h after consumption of cooked beef value for entry Cc1cnc2ccc3c(nc(N)n3C)c2n1
Reply: 48.3

Ask: // query Amount in urine collected for 10 h after consumption of cooked beef value for entry Cn1c(=NO)n([C@@H]2O[C@H](C(=O)O)[C@@H](O)[C@H](O)[C@H]2O)c2ncc(-c3ccccc3)cc21
Reply: 319

Ask: // query Amount in urine collected for 10 h after consumption of cooked beef value for entry Cn1c(N)nc2ncc(-c3ccc(O)cc3)cc21
Reply: 50.1

Ask: // query Amount in urine collected for 10 h after consumption of cooked beef value for entry Cn1c(N(O)[C@@H]2O[C@H](C(=O)O)[C@@H](O)[C@H](O)[C@H]2O)nc2ncc(-c3ccccc3)cc21
Reply: 2621
